- ASSAY SYSTEM: Atrial natriuretic peptide receptor 1 (Homo sapiens)
- EXPERIMENTAL DETAILS: Natriuretic polypeptide receptor (hNpr1) antagonism - Pilot screen (AID 1347049);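 further: HEK293 cells with hNpr1 and GloSensor cGMP luciferase stimulated by 0.1 nM hNppA; agonist-evoked cGMP luminescence read 20 min after hNppA addition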
- EXPERIMENTAL PARAMETERS: hNpr1 cells, antagonist mode cGMP read-out; series mostly up to 57.5 µM
Inconclusive results are not listed. The source made the active and inactive calls. The call rests on the fitted dose curve.
Classes used: active, inactive

MOLECULE	ASSIGNED LABEL
O=C1C(SCCO)=C(SCCO)C(=O)c2ccccc21	active
CC[C@@H](C)[C@H]1O[C@]2(CC[C@H]1C)C[C@@H]1C[C@@H](CC=C(C)[C@@H](O[C@H]3C[C@H](OC)[C@@H](O[C@H]4C[C@H](OC)[C@@H](O)[C@H](C)O4)[C@H](C)O3)[C@@H](C)C=CC=C3CO[C@@H]4[C@H](O)C(C)=C[C@@H](C(=O)O1)[C@]34O)O2	inactive
Oc1ccc(C2CNCc3sccc32)cc1O (stereo unspecified)	inactive
CSc1nc(N)c2ncn([C@@H]3O[C@H](COP(=O)(O)OP(=O)(O)OP(=O)(O)O)[C@@H](O)[C@H]3O)c2n1	inactive
O=C(O)CCCC[C@@H]1CCSS1	inactive
CCN(CC)c1ncnc2c1ncn2[C@@H]1O[C@H](COP(=O)(O)OP(=O)(O)C(Br)(Br)P(=O)(O)O)[C@@H](O)[C@H]1O	inactive
O=C(/C=C/c1ccc(O)c(O)c1)OCCc1ccccc1	inactive
COc1cc(C(O)CO)ccc1OS(=O)(=O)O (stereo unspecified)	inactive
N#C/C(=C\c1ccc(O)c(O)c1)C(=O)c1ccc(O)c(O)c1	inactive
Cn1cc(C2=C(c3ccc(Cl)cc3Cl)C(=O)NC2=O)c2ccccc21	inactive
Cc1ccc(O)c(N=Nc2ccccc2)n1	active
O=C(O)c1cc(=O)c2ccccc2[nH]1	inactive
CN1CCc2cccc3c2C1Cc1ccc(O)c(O)c1-3 (stereo unspecified)	inactive
Nc1ncnc2c1ncn2[C@@H]1O[C@H](COP(=O)(O)CP(=O)(O)OP(=O)(O)O)[C@@H](O)[C@H]1O	inactive
CN1C2CC(OC(=O)[C@H](CO)c3ccccc3)CC1C1OC12 (stereo partly specified)	inactive
NC(=S)c1ccc[n+]([C@@H]2O[C@@H](COP(=O)([O-])OP(=O)(O)OC[C@H]3O[C@@H](n4cnc5c(N)ncnc54)[C@H](OP(=O)(O)O)[C@@H]3O)C(O)C2O)c1 (stereo partly specified)	inactive
NC(CCCP(=O)(O)O)C(=O)O (stereo unspecified)	inactive
O=C(c1ccc(OCCCc2cnc[nH]2)cc1)C1CC1	inactive
NO	inactive
N#C/C(=C\c1ccc(O)c(O)c1)C(=O)NCc1ccccc1	inactive
O=C1NC(=O)/C(=C/c2ccc3nccnc3c2)S1	inactive

* * *

- EXPERIMENTAL DETAILS: qHTS Assay for Lipid Storage Modulators (AID 1519)
- EXPERIMENTAL PARAMETERS: Drosophila S3 cells, BODIPY lipid droplet/cell ratio, laser cytometry; measured here: cell count channel max response; cells loaded with oleic acid
Records with an inconclusive call do not appear.
max response listing for selected molecules.

MOLECULE	UNIT NAME	max response
Cc1c(Nc2ncccc2C(=O)O)cccc1C(F)(F)F	%	-9.98
COc1cc(NC(C)CCCN)c2ncccc2c1 (centres undefined)	%	14.8
CN1[C@@H](CC(=O)c2ccccc2)CCC[C@H]1C[C@H](O)c1ccccc1	%	24.6
CCN1/C(=C/C(C)=O)Sc2ccc(OC)cc21	%	-21.8
CN1CCc2cc(NC(=O)Nc3cccnc3)ccc21	%	32.8
O=C1NC(O)=NC1(c1ccccc1)c1ccccc1	%	-13.9
CN(C)CCC(c1ccc(Cl)cc1)c1ccccn1 (centres undefined)	%	45.4
OCC1O[C@H](O)C(Cl)C(O)C1O (some centres undefined)	%	-14.2
OC[C@H]1O[C@@H](n2cnc3c(NC4CCCCC4)ncnc32)[C@H](O)[C@@H]1O	%	-23.3
Nc1ccc(C(=O)O)c(O)c1	%	19.5
CN1CCc2cc(O)c(O)cc2C(c2ccccc2)C1 (centres undefined)	%	31.9
COc1cccc(C(=O)NCCN2CCN(c3ccc(Cl)cc3)CC2)c1	%	-16.3
CC(C(=O)O)c1ccc(C(=O)c2cccs2)cc1 (centres undefined)	%	8.76
O=C(O)Cc1ccc(-c2ccccc2)cc1	%	-7.71
Ic1ccc(N2CCN(Cc3c[nH]c4ncccc34)CC2)cc1	%	-23.2
CCCCCCCCCCCCCCCCCC(=O)NCC(COP(=O)([O-])OCC[N+](C)(C)C)OCC (centres undefined)	%	15.1
Nc1nc(Cl)nc2c1ncn2[C@@H]1O[C@H](CO)[C@@H](O)[C@H]1O	%	7.07
O=S(=O)(c1cccc2c(I)cccc12)N1CCCNCC1	%	-8.25
O=c1[nH]c2cc(C(F)(F)F)ccc2n1-c1cc(C(F)(F)F)ccc1O	%	34.5
C=C/C(C)=C/[C@@]1(C)SC(=O)C(C)=C1O	%	30.8
COc1cc2c(CCNC(C)=O)c[nH]c2cc1Cl	%	-19
CCCCCCCC/C=C\CCCCCCCC(=O)NCCO	%	18.9
CCCCCCOc1ccccc1C(N)=O	%	7.6
CC1(C)CCC=[N+]1[O-]	%	-28.1

* * *

- System: CP269
- EXPERIMENTAL DETAILS: qHTS profiling for inhibitors of Plasmodium falciparum proliferation (AID 504749); further: nearly all actives have a fitted effect of over 60% in size
- EXPERIMENTAL PARAMETERS: P. falciparum in erythrocytes, SYBR Green DNA, 72 h; series mostly up to 28.7 µM
Inconclusive results are not listed. Active and inactive are the calls of the source. The call rests on the fitted dose curve; in most records, active means well fitted inhibition curve with a large enough effect; inconclusive means small, poorly fitted or top-dose-only effect; inactive means flat fitted curve, though single readings scatter. Where a SMILES comes first, the peptide text is derived from it. [ ]: non-standard residue; d: D form. pGlu = O=C1CC[C@@H](C(=O)O)N1; Thz = O=C(O)[C@@H]1CSCN1
Possible outcomes: true (1) for active, false (0) for inactive

COMPOUND	ASSIGNED LABEL
CCCCCCCCCCCC(=O)[O][Sn]([CH2]CCC)([CH2]CCC)[O]C(=O)CCCCCCCCCCC	false (0)
O=C1CC[C@@H](C(=O)N2CSC[C@H]2C(=O)O)N1 ([pGlu]-[Thz]-OH)	false (0)
Nc1ccc(O)c(C(=O)O)c1	false (0)
CN(C)c1ccc(C(=C2C=CC(=[N+](C)C)C=C2)c2ccccc2)cc1	true (1)
C[S+](CC[C@H](N)C(=O)O)C[C@H]1O[C@@H](n2cnc3c(N)ncnc32)[C@H](O)[C@@H]1O (some centres undefined)	false (0)
CCCC(=O)OC[C@@H](OC(=O)CCC)[C@@H](OC(=O)CCC)[C@H](Cn1c2nc(=O)[nH]c(=O)c-2nc2cc(C)c(C)cc21)OC(=O)CCC	false (0)
CC1(C)[C@@H](O)CC[C@]2(C)[C@H]3C(=O)C=C4[C@@H]5C[C@@](C)(C(=O)O)CC[C@]5(C)CC[C@@]4(C)[C@]3(C)CC[C@@H]12	false (0)
CCCCCCCCCCCCCCCCCC(=O)O	false (0)
O=C(O)c1cc(O)c(O)c(O)c1	false (0)
O=C(O)/C=C/C(O)c1ccc(Cl)cc1 (centres undefined)	false (0)
CCCCCCOc1ccccc1C(N)=O	false (0)
c1ccc2sc(SN3CCOCC3)nc2c1	false (0)
CCC1C(=O)OCC1Cc1cncn1C (centres undefined)	false (0)
CC(=O)[C@]1(O)Cc2c(O)c3c(c(O)c2[C@@H](O[C@H]2C[C@H](N)[C@H](O)[C@H](C)O2)C1)C(=O)c1c(O)cccc1C3=O	true (1)

* * *

- ASSAY SYSTEM: Thyrotropin-releasing hormone receptor (Homo sapiens) (UniProt P34981)
- Sequence (P34981 whole entry, looked up): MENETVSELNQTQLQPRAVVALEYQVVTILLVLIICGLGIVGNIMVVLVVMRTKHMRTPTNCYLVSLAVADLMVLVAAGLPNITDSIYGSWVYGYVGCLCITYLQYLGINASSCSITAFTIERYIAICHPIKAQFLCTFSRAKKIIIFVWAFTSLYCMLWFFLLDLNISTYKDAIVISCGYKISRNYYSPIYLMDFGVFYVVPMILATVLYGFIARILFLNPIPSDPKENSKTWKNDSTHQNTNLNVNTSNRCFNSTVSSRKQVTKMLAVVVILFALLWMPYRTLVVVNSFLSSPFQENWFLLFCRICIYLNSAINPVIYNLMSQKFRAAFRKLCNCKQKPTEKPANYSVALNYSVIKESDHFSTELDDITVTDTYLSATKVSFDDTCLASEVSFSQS
- EXPERIMENTAL DETAILS: qHTS for Small Molecule Agonists and Allosteric Enhancers of Human TRH Receptor: Validation Screen for Agonists (AID 493127);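 further: intracellular calcium rise by fluo-8 fluorescence before TRH EC20 addition; 0% is about no effect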
- EXPERIMENTAL PARAMETERS: TRH receptor agonist cell assay; at 2 µM; stronger effect = higher value
- Method: NIH Chemical Genomics Center [NCGC] NIH Molecular Libraries Probe Centers Network [MLPCN] Assay Submitter (PI): Marvin Gershengorn […] For the HTS assay freshly prepared cells are plated at a density of 2000/well in 3 ul of complete DMEM medium containing 10% serum in 1536-well plates and cultured over night at 37 C in a humidified incubator with 5% CO2. […] For the assay, assay plates were loaded into the FDSS kinetic plate reader. […]
activation overview
MEASURED QUANTITY: activation (%)

MOLECULE	READOUT NUMBER
N.N.O=C(O)C1(C(=O)O)CCC1.[Pt]	-0.5
CN(C)C(N)=NCCC[C@H](N)C(=O)O	0.188
c1ccc(-c2ccccn2)nc1	0
COc1cc2nc(N3CCN(C(=O)OCc4ccccc4)C(C(=O)NC(C)(C)C)C3)nc(N)c2cc1OC (centres undefined)	-3.06

* * *

- EXPERIMENTAL DETAILS: Drug repurposing screens with cells derived from glioblastoma tumor samples (AID 1345199); further: on the % scale 0 is the no-effect control and ±100 the full control effect; nearly all actives have a fitted effect of over 40% in size
- EXPERIMENTAL PARAMETERS: GBM patient neurospheres viability, ATP luminescence, 48 h; at 45.9 µM (top of the series); tumour line D
Results filed as inconclusive are left out. Active and inactive are the calls of the source. The call rests on the fitted dose curve; in most records, active means well fitted inhibition curve with a large enough effect; inconclusive means small, poorly fitted or top-dose-only effect; inactive means flat fitted curve, though single readings scatter.
MEASURED QUANTITY: activity, negative = cell killing

TEST SMILES	RESULT
N=c1ccn2c(n1)O[C@H]1[C@H](O)[C@@H](CO)O[C@H]12	-31.3% (inactive)
C=CCCCCCCCCC(=O)O	-8.73% (inactive)
CC1(C)S[C@@H]2[C@H](NC(=O)[C@H](N)c3ccccc3)C(=O)N2[C@H]1C(=O)O	10.7% (inactive)
COc1cc(/C=C/C(=O)N2CCN(CC(=O)N3CCCC3)CC2)cc(OC)c1OC	-1.45% (inactive)
CC1(C)S[C@@H]2[C@H](NC(=O)[C@H](N)c3ccc(O)cc3)C(=O)N2[C@H]1C(=O)O	3.17% (inactive)

Data provenance is PubChem BioAssay (NCATS).
